# Tested on: MCF7
# Assay method text: NCI tumour cell line growth inhibition, 48 h
Active and inactive are the calls of the source. Cut-off read from the data, not from the text of the source: active = GI50 up to about 1.1 µM and inactive = higher.
Permitted responses: active, inactive

Reference set, count: 8
COC(=O)c1ccccc1/C=C1\Cc2ccc(C)c(C)c2C1=O :: inactive
CCOC(=O)c1ccc(/N=N/N(C)C(=O)C(C)N)cc1 (centres undefined) :: inactive
COc1cc(COC(=O)N(CC(=O)O)c2ccccc2)c([N+](=O)[O-])cc1OC :: inactive
CN1CCC(C(O)(c2ccccc2)c2ccc(Br)cc2)CC1 (centres undefined) :: inactive
Cc1c(O)c(OC2OC(CO)C(O)C(O)C2O)cc2c1CC[C@@H]1C2(C)C(=O)C[C@]2(C)[C@@H]([C@@](C)(O)C(=O)CCC(C)(C)O)[C@H](O)C[C@@]12C (some centres undefined) :: inactive
COC(=O)CCC1=C(CC(=O)OC)C(C)(OC)N/C1=N/C(=O)OCc1ccccc1 (centres undefined) :: inactive
C=CC(C)(C)n1cc(C2=C3OC(=O)C(c4cn(C(C)(C)C=C)c5ccccc45)=C3OC2=O)c2ccccc21 :: inactive
COc1cc2c[n+](C)c3c4cc(OC)c(OCc5ccccc5)cc4c(OCc4ccccc4)cc3c2cc1OC :: inactive

Would you kindly look at the next entry?
Incoming: Please state the recorded outcome for this compound: COC(=O)c1cccc(N[C@@H]2c3cc4c(cc3C(c3cc(OC)c(O)c(OC)c3)[C@H]3C(=O)OCC32)OCO4)c1 (some centres undefined)
Outgoing: active

---

# Test system: U-251
# Assay method text: NCI tumour cell line growth inhibition, 48 h
Activity calls are given as the source filed them. Cut-off read from the data, not from the text of the source: active = GI50 up to about 1.1 µM and inactive = higher.
Permitted responses: True (active), False (inactive)

Reference set, count: 2
C/C1=C/C(C)CC(C)OC(=O)C(C)NC(=O)C(Cc2ccc(O)c(I)c2)N(C)C(=O)C(C)NC(=O)C(C)C1 (stereo unspecified) :: True
Nc1nc(SCc2ccccc2Cl)cc(C(=O)O)n1 :: False

Would you kindly look at the next entry?
Incoming: Please state the recorded outcome for this compound: `COc1cc(-c2ccc(NC(=O)SCCC(=O)O)cc2OC)ccc1NC(=O)SCCC(=O)O`
Outgoing: False

---

# Test system: UO-31
# Assay method text: NCI tumour cell line growth inhibition, 48 h
Active and inactive are the calls of the source. Cut-off read from the data, not from the text of the source: active = GI50 up to about 1.1 µM and inactive = higher.
Endpoint: GI50

Example entries and their recorded answers appear below.
O=C(O)[C@@H]1C[C@@H](O)CN1 :: > 100 µM (inactive)
CCOC(=O)C(=O)Nc1cccc(Cl)c1C :: > 100 µM (inactive)
COc1cc(-c2ccc(NC(=O)SCCC(=O)O)cc2OC)ccc1NC(=O)SCCC(=O)O :: > 100 µM (inactive)

Incoming: Find the recorded GI50 belonging to `C=C1CC2(OC1=O)c1ccccc1CCc1ccccc12` and report it.
Outgoing: 9.82 µM (inactive)

Incoming: Then C=C1C(C)C2C(Cc3ccccc3)NC(=O)C23C(OC(C)=O)C=CC(C)(O)C(=O)C(C)C/C=C/C3C1O (centres undefined) ?
Outgoing: 0.296 µM (active)

---

# System: SF-539
# Assay method text: NCI tumour cell line growth inhibition, 48 h
Calls of active or inactive are those of the source. Rule as the data show it: active = GI50 up to about 1.1 µM and inactive = higher.
Permitted responses: t (active), f (inactive)

CC(=O)OCC1OC(n2c(-c3ccccc3)c(C(C)=O)c(-c3cccc4ccccc34)c(C#N)c2=S)C(OC(C)=O)C(OC(C)=O)C1OC(C)=O (centres undefined) :: f
COc1ccc(C(c2c[nH]c3ccc(Br)cc23)c2c[nH]c3ccc(Br)cc23)cc1 :: t
Cc1cc(NS(=O)(=O)c2ccc(NC(NC(=O)OC(C)C)(C(F)(F)F)C(F)(F)F)cc2)nc(C)n1 :: f

Incoming: Please state the recorded outcome for this molecule: COc1ccc(/C(=N\NC(=O)C(=O)NN)C(c2ccc(OC)cc2)C2(O)C(=O)Nc3ccccc32)cc1 (centres undefined)
Outgoing: f

---

Recorded measurements of GI50, one per entry
# Tested on: RXF 393
# Assay method text: NCI tumour cell line growth inhibition, 48 h
Calls of active or inactive are those of the source. Cut-off read from the data, not from the text of the source: active = GI50 up to about 1.1 µM and inactive = higher.

Example entries and their recorded answers appear below.
c1nc(NCCc2c[nH]cn2)c2nc[nH]c2n1 :: > 100 µM (inactive)
CCCCCCCCCCCCCC/C(C(=O)O)=C(\C)C(=O)O :: > 100 µM (inactive)
CC(=O)OCCCCn1nncc1Cn1ccc(=O)n(Cc2cnnn2CCCCOC(C)=O)c1=O :: > 100 µM (inactive)

Incoming: Find the recorded GI50 belonging to `COc1cc2c(cc1C[N+](C)(C)CSc1ccccc1)-c1ccccc1CC2` and report it.
Outgoing: 6.53 µM (inactive)

Incoming: Then `C=CCNC1=C2C[C@@H](C)C[C@@H](OC)[C@H](OC(=O)CN)[C@H](C)/C=C(\C)[C@@H](OC(N)=O)[C@H](OC)/C=C\C=C(/C)C(=O)NC(=CC1=O)C2=O` ?
Outgoing: 1.95 µM (inactive)

Incoming: Then `Nc1nc(SCc2ccccc2Cl)cc(C(=O)O)n1` ?
Outgoing: > 100 µM (inactive)

Incoming: Then COC(=O)C(CC(=O)Nc1ccc(C)cc1)C(=O)C(=O)Nc1ccccc1C(C)C (stereo not given) ?
Outgoing: > 100 µM (inactive)

---

# System: LOX IMVI
# Assay method text: NCI tumour cell line growth inhibition, 48 h
Activity calls are given as the source filed them. No stated cut-off is given here; in the data, active = GI50 up to about 1.1 µM and inactive = higher.
Permitted responses: yes (active), no (inactive)

Incoming: Please state the recorded outcome for this molecule: O=C1C(Br)=CC2([N+](=O)[O-])CCNC3=C(C4=NCCc5c[nH]c(c54)C3=O)C2=C1Br (centres undefined)
Outgoing: no

Incoming: Then `Cc1c2cc[n+](C)cc2c(C)c2c1[nH]c1ccc(OC(C)C)cc12` ?
Outgoing: no

---

# System: MDA-MB-435
# Assay method text: NCI tumour cell line growth inhibition, 48 h
Active and inactive are the calls of the source. Cut-off read from the data, not from the text of the source: active = GI50 up to about 1.1 µM and inactive = higher.
Endpoint: GI50

Example entries and their recorded answers appear below.
C/C(=N\O)c1ccc(OCc2cc(C(F)(F)F)cc(C(F)(F)F)c2)cc1 :: 43.8 µM (inactive)
CS(=O)(=O)Nc1ccc(Nc2c3ccccc3nc3ccccc23)cc1 :: 7.87 µM (inactive)
CC(C)(C)C1=CC(=C2C=Cc3cc(O)ccc3O2)C=C(C(C)(C)C)C1=O :: 1.5 µM (inactive)

Incoming: Find the recorded GI50 belonging to `COc1ccc2c(c1OC)C[C@@H]1c3c(cc4c(c3-2)OCO4)CCN1C` and report it.
Outgoing: 27.5 µM (inactive)

Incoming: Then NCCCC(N)C(=O)O (stereo unspecified) ?
Outgoing: > 100 µM (inactive)

Incoming: Then `Cc1cc(=O)oc2c(OS(C)(=O)=O)c(OS(C)(=O)=O)ccc12` ?
Outgoing: > 100 µM (inactive)

---

# Tested on: CCRF-CEM
# Assay method text: NCI tumour cell line growth inhibition, 48 h
The source made the active and inactive calls. Cut-off read from the data, not from the text of the source: active = GI50 up to about 1.1 µM and inactive = higher.
Recorded measurements of GI50, one per entry

Example entries and their recorded answers appear below.
C=C1C(C)C2C(Cc3ccccc3)NC(=O)C23C(OC(C)=O)C=CC(C)(O)C(=O)C(C)C/C=C/C3C1O (stereo not given) :: 4.24 µM (inactive)
COc1cc2c(cc1O)C=NCC2 :: 50 µM (inactive)
CC(=O)NS(=O)(=O)c1ccc(NCc2cccc3c(=O)c4ccc(Cl)cc4oc23)cc1 :: 4.2 µM (inactive)
Oc1ccc[nH]c1=[Se] :: 35.3 µM (inactive)
NC(CCCCNC(=O)OCc1ccccc1)C(=O)NC(CCCCNC(=O)OCc1ccccc1)C(=O)ON1C(=O)CCC1=O (stereo not given) :: > 100 µM (inactive)
CC1=C(C)C(=O)C2=C(OCCCO2)C1=O :: 2.43 µM (inactive)
CCCCNC(=O)NNC(=O)c1cc(/C=C/c2cccc([N+](=O)[O-])c2)ncn1 :: > 100 µM (inactive)
c1ccc(-c2nnc(-c3nsc4ccccc34)o2)cc1 :: > 100 µM (inactive)

Incoming: Find the recorded GI50 belonging to COc1cc(C2c3cc4c(cc3[C@@H](N(C)c3ccc(N(C)C)cc3)C3COC(=O)C23)OCO4)cc(OC)c1O (stereo not given in full) and report it.
Outgoing: 0.343 µM (active)

Incoming: Then `CCNC1=C(NC(=O)CCl)C(=O)c2ccccc2C1=O` ?
Outgoing: 20 µM (inactive)

---

# Test system: HT-29
# Assay method text: NCI tumour cell line growth inhibition, 48 h
Active and inactive are the calls of the source. No stated cut-off is given here; in the data, active = GI50 up to about 1.1 µM and inactive = higher.
Permitted responses: 1 (yes) = active, 0 (no) = inactive

CC(Cc1ccccc1)Nc1ncnc2c1ncn2C1OC(CO)CC1O (stereo unspecified) :: 0 (no)
COc1ccc(C2c3cc4c(cc3OC(NNc3ccccc3)C2C)OCO4)cc1 (stereo unspecified) :: 0 (no)
NC(=O)CCC(NCc1c2ccccc2[n+]([O-])c2ccccc12)C(=O)O (stereo unspecified) :: 0 (no)
CC(=O)OCC1CCC(=C2C(=O)OC(C)(C)OC2=O)N1 (stereo unspecified) :: 0 (no)
COc1ccc(C(c2c[nH]c3ccc(Br)cc23)c2c[nH]c3ccc(Br)cc23)cc1 :: 1 (yes)

Would you kindly look at the next entry?
Incoming: Please state the recorded outcome for this molecule: CC1OC1P(=O)(O)O (stereo unspecified)
Outgoing: 0 (no)
